- system name: T1, human Tissue Factor on human TF-positive cells (human, UniProt P13726 33-295)
- T1 construct: also called hTF; CD142
- assay remarks: flow cytometry, titration of unconjugated antibody on HCT-116 cells (human TF), 4-parameter fit of MFI
reported endpoint: EC50 (nM)
Reply numerically in nM, unit not repeated.

54E (antibody, human IgG1, V domains shown, Human IgG1; also called antibody designated 54E) VH: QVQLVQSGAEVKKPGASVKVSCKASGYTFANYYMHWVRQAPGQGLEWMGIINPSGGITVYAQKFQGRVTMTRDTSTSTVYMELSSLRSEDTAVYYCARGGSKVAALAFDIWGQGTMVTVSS VL: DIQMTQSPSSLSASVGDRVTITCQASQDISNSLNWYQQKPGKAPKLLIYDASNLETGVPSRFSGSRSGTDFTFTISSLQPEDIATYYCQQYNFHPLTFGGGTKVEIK : 0.36

Now turn to the next binder.
Looking up 25G1 (antibody, human IgG1, V domains shown, Human IgG1; also called antibody designated 25G1) VH: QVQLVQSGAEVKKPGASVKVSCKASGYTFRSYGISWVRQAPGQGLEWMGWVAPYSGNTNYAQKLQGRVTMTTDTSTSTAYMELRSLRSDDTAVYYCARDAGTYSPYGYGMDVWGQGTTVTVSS VL: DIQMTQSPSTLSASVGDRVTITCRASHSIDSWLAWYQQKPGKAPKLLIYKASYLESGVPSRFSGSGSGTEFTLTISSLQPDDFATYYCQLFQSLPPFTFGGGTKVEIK , I found its EC50 recorded as 0.16
